tested on: Pseudomonas aeruginosa; test: Antimicrobial against Pseudomonas aeruginosa 30848 harboring phoU allele by broth dilution method; assay type: functional
Reported MIC values follow for various compounds
Give a bare numeral; the unit µg/mL is implied.

Here are 3 compounds together with their reported answers.
O=C(O)c1cn(C2CC2)c2cc(N3CCNCC3)c(F)cc2c1=O; 0.2
NC[C@H]1O[C@H](O[C@H]2[C@H](O)[C@@H](O[C@H]3O[C@H](CO)[C@@H](O)[C@H](N)[C@H]3O)[C@H](N)C[C@@H]2N)[C@H](N)C[C@@H]1O; 0.4
CCn1cc(C(=O)O)c(=O)c2cc3c(cc21)OCO3; 16

Moving on to the next compound.
Q: Fill in MIC for record O=C(N[C@H](CO)[C@H](O)c1ccc([N+](=O)[O-])cc1)C(Cl)Cl
A: 200

----------
test system: Pseudomonas aeruginosa; experiment: Antimicrobial against Pseudomonas aeruginosa 312 harboring PBPP allele by broth dilution method; type: functional
Reported MIC values follow for various compounds
Give a bare numeral; the unit µg/mL is implied.

O=C(O)c1cn(C2CC2)c2cc(N3CCNCC3)c(F)cc2c1=O; 0.1
NC[C@H]1O[C@H](O[C@H]2[C@H](O)[C@@H](O[C@H]3O[C@H](CO)[C@@H](O)[C@H](N)[C@H]3O)[C@H](N)C[C@@H]2N)[C@H](N)C[C@@H]1O; 0.2
O=C(N[C@H](CO)[C@H](O)c1ccc([N+](=O)[O-])cc1)C(Cl)Cl; 12.5

Moving on to the next compound.
Q: Fill in MIC for record CCn1cc(C(=O)O)c(=O)c2cc3c(cc21)OCO3
A: 8

----------
tested on: Pseudomonas aeruginosa; assay: Antimicrobial against Pseudomonas aeruginosa 3894 by broth dilution method; assay type: functional
Reported MIC values follow for various compounds
Give a bare numeral; the unit µg/mL is implied.

Here are 3 compounds together with their reported answers.
O=C(O)c1cn(C2CC2)c2cc(N3CCNCC3)c(F)cc2c1=O [CIPROFLOXACIN]; 0.05
CCn1cc(C(=O)O)c(=O)c2cc3c(cc21)OCO3 [OXOLINIC ACID]; 8
NC[C@H]1O[C@H](O[C@H]2[C@H](O)[C@@H](O[C@H]3O[C@H](CO)[C@@H](O)[C@H](N)[C@H]3O)[C@H](N)C[C@@H]2N)[C@H](N)C[C@@H]1O [TOBRAMYCIN]; 0.4

Moving on to the next compound.
Q: Fill in MIC for record O=C(N[C@H](CO)[C@H](O)c1ccc([N+](=O)[O-])cc1)C(Cl)Cl [CHLORAMPHENICOL]
A: 12.5

----------
Reported MIC values follow for various molecules
test system: Pseudomonas aeruginosa; experiment: Antimicrobial against Pseudomonas aeruginosa 1494 harboring phnA allele by broth dilution method; type: functional
Give a bare numeral; the unit µg/mL is implied.

Here are 3 molecules together with their reported answers.
CCn1cc(C(=O)O)c(=O)c2cc3c(cc21)OCO3; 8
NC[C@H]1O[C@H](O[C@H]2[C@H](O)[C@@H](O[C@H]3O[C@H](CO)[C@@H](O)[C@H](N)[C@H]3O)[C@H](N)C[C@@H]2N)[C@H](N)C[C@@H]1O; 0.4
O=C(O)c1cn(C2CC2)c2cc(N3CCNCC3)c(F)cc2c1=O; 0.1

Q: Fill in MIC for record O=C(N[C@H](CO)[C@H](O)c1ccc([N+](=O)[O-])cc1)C(Cl)Cl
A: 12.5
